test: Solubility of saturated solutions determined by HPLC; assay type: physicochemical; conditions: organic solvent or mixture, thermodynamic from solid; 2-Methoxyethanol, 25° C.; read-out: Solubility

SMI	solubility (µg/mL)
CN(C)c1nc(Cc2ccc(NC(=O)c3ccc(C(F)(F)F)cc3)cc2)nc(N(C)C)c1CC(=O)O	5350

* * *

assay: Solubility of saturated solutions determined by HPLC; format: physicochemical; details: saturated solution in acetonitrile, organic solvent or mixture, thermodynamic from solid; Acetonitrile, 50° C.; read-out: Solubility
READOUT_LABEL: solubility (µg/mL)

SMI	VALUE_REPORTED
CN(C)c1nc(Cc2ccc(NC(=O)c3ccc(C(F)(F)F)cc3)cc2)nc(N(C)C)c1CC(=O)O	940
